- TEST_NAME: binders of probe aFGF10 on microarray, primary screen, stem cell growth factor project, biochemical, small-molecule microarray, fluorescence 635/667 (AID 1071);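 further: score merges 667 nm spot intensity and signal to noise from triplicate slides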
- CONDITION_PARAMETERS: higher = more signal
Where composite z-score equals or exceeds 0.5, the correct label is Criterion met; where it does not, the label is Criterion not met.

Here are 2 compounds together with their reported answers.
>  <COMPOUND>
CC(C)c1ccc(NN2C(C(O)C(C)C)C=CC3C(=O)N(c4ccccc4)C(=O)C32)cc1 (configuration not stated)

>  <CAT>
Criterion met

$$$$
>  <COMPOUND>
COC(=O)[C@@]1(CCC(=O)OC(C)(C)C)N=C(c2ccc(OCCCO)cc2)O[C@H]1c1ccccc1CN=[N+]=[N-]

>  <CAT>
Criterion not met

$$$$

**Query** Say whether CC1CC/C=C\[C@H]2OC34C=CCN(CCN5CCOCC5)C(=O)[C@H]3N(CCCCCCO)C(=O)[C@@H]4C2C(=O)O1 (some centres not stated) shows composite z-score of 0.5 or more.
**Result** Criterion not met

**Query** Say whether COC(=O)[C@H](Cc1ccc(O)cc1)N1CC2=CCCC=C[C@@H]2[C@H]1[C@H](O)Cc1ccccc1 shows composite z-score of 0.5 or more.
**Result** Criterion not met

**Query** Say whether CCC[C@@H]1[C@@H](Sc2ccccc2)[C@@H](C(=O)O)[C@H](c2ccc(C)cc2)N1S(=O)(=O)c1ccc(C)cc1 shows composite z-score of 0.5 or more.
**Result** Criterion met

**Query** Say whether COCCOC(=O)N1C(=O)[C@@]2(c3cc(C#CC4=CCCCC4)ccc31)[C@H](c1ccc(OCCO)cc1)N1[C@H](c3ccccc3)[C@H](c3ccccc3)OC(=O)[C@H]1[C@@H]2C(=O)N1CCCCCCC1 shows composite z-score of 0.5 or more.
**Result** Criterion not met

###

Please respond with reported composite z-score for every item in the list.
- System: Sonic hedgehog protein (Shh)
- TEST_NAME: small-molecule binders of Shh protein, primary screen, biochemical, small-molecule microarray, 635/667 nm fluorescence (AID 1151);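 further: Shh protein binding to compounds spotted on small-molecule microarray slides; score combines spot fluorescence intensity with signal-to-noise across triplicate slides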
- CONDITION_PARAMETERS: small-molecule microarray binding, 635 nm fluorescence; higher = more signal
One number for each entry.

Consider the worked cases shown below.
>  <COMPOUND>
COC(=O)C1(CC(C)C)C=C2C(=C(C(C)C)C(=O)C2C)CN1 (stereo not drawn)

>  <composite z-score>
-0.702

$$$$
>  <COMPOUND>
COC(=O)c1ccc([C@H](NC(=O)c2ccccc2)[C@]2(C)C[C@H]2C2CCCCC2)cc1

>  <composite z-score>
-0.999

$$$$
>  <COMPOUND>
CCCCCCCCCCC(O)C1C=CC2C(=O)N(C)C(=O)C2N1N1CCCCC1 (stereo not drawn)

>  <composite z-score>
-1.89

$$$$
>  <COMPOUND>
CC(C)[Si](C#CCCCC#N)(O[C@H](c1ccccc1)c1cn([C@H](C)c2ccccc2)nn1)C(C)C

>  <composite z-score>
1.09

$$$$

Each compound below has a recorded value; state its composite z-score.
1. COCCOC(=O)N1C(=O)[C@@]2(c3cc(C#CC4(O)CCCCCC4)ccc31)[C@H](C(=O)NC[C@H](O)c1ccccc1)[C@H]1C(=O)O[C@H](c3ccccc3)[C@H](c3ccccc3)N1[C@@H]2c1ccc(O)cc1
2. COc1ccccc1CN1C(=O)c2ccccc2[C@@H](C(=O)NCCCN(C)C)[C@@H]1c1ccc(CO)cc1
3. COC(=O)[C@]1(CO)N=C(c2ccc(OCCCO)cc2)O[C@@H]1c1ccccc1CN=[N+]=[N-]
4. COc1cc2c(cc1O)C(C1CC1)N(Cc1ccc([N+](=O)[O-])o1)CC2 (stereo not drawn)

**Result**
1: 1.07; 2: -0.0791; 3: 0.583; 4: -0.575
